- Assay Remarks: chemical genetic growth profiling, strain panel (AID 1159580);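 note: tested at 20 µM; growth read once vehicle control cultures reached saturation at 30 °C; 1 = growth at the plate median or of vehicle wells; lower values mean less growth of the strain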
- Condition: S. cerevisiae deletion strains, growth OD, locus YDR159W, strain sac3, stronger effect = lower value
About 2,000 (36%) of roughly 5,500 compounds were called active. Another 18% or so got no clear call; they are omitted. Some of the results follow.
Sorting guide: entries reporting normalized growth beneath 1 go in the Condition met pile, the rest go in the Condition not met pile.

Smiles Code: C=CCCCCCCCCCCCc1ccco1
Classification: Condition met
//
Smiles Code: CCCCCCCCC(=O)NCc1ccc(O)c(OC)c1
Classification: Condition not met
//
Smiles Code: C#CCCCCCCCCCCCc1ccco1
Classification: Condition met
//
Smiles Code: O=S(=O)(O)c1cc(N=C=S)ccc1/C=C/c1ccc(N=C=S)cc1S(=O)(=O)O
Classification: Condition not met

----------
- Assay Remarks: chemical genetic growth profiling, strain panel (AID 1159580);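 note: tested at 20 µM; growth read once vehicle control cultures reached saturation at 30 °C; 1 = growth at the plate median or of vehicle wells; lower values mean less growth of the strain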
- Condition: S. cerevisiae deletion strains, growth OD, locus YOR061W, strain CKA2, stronger effect = lower value
Hit rate of the full screen: of about 5,500 compounds, about 2,000 (36%) were called active. Not shown: some 18% with an inconclusive outcome. This is one part of the list.
Quick reference: normalized growth of the listed items.
Readout Kind: normalized growth

Compound: CC(C)NCC(O)COc1cccc2[nH]ccc12 (configuration not stated)
Readout Kind: normalized growth
Reported Value: 0.996
//
Compound: Fc1cc(I)ccc1Nc1ccnc2cc(Cl)ccc12
Readout Kind: normalized growth
Reported Value: 0.966
//
Compound: Cc1ccc(S(=O)(=O)NC(=O)Nc2ccc(Sc3ccccc3)nc2Sc2ccccc2)cc1
Readout Kind: normalized growth
Reported Value: 0.938
//
Compound: Cc1ccc(S(=O)(=O)NC(=O)NN2CCCCCC2)cc1
Readout Kind: normalized growth
Reported Value: 0.994
//
Compound: CN1C2C[C@H](OC(=O)[C@H](CO)c3ccccc3)C[C@H]1[C@@H](O)C2
Readout Kind: normalized growth
Reported Value: 1.01
//
Compound: O=C1C(Cl)=C(Cl)C(=O)C(Cl)=C1Cl
Readout Kind: normalized growth
Reported Value: 0.617
//
Compound: C=C[C@@](C)(O)CCC1C(=C)C[C@H](OC(C)=O)C2C(C)(C)CCCC12C (some centres not stated)
Readout Kind: normalized growth
Reported Value: 0.971
//
Compound: C[C@H]1COc2c(N3CCN(C)CC3)c(F)cc3c(=O)c(C(=O)O)cn1c23
Readout Kind: normalized growth
Reported Value: 1.01
//
Compound: N[C@@H](Cc1ccc(N(CCCl)CCCl)cc1)C(=O)O
Readout Kind: normalized growth
Reported Value: 0.962
//
Compound: COc1cc([C@@H]2c3cc4c(cc3C(OC3O[C@@H]5COC(C)O[C@H]5[C@H](O)[C@H]3O)C3COC(=O)[C@@H]32)OCO4)cc(OC)c1O (some centres not stated)
Readout Kind: normalized growth
Reported Value: 0.996
//
Compound: CN1C2CCC1CC(OC(c1ccccc1)c1ccccc1)C2 (configuration not stated)
Readout Kind: normalized growth
Reported Value: 0.979
//
Compound: CCCCNC(=O)NS(=O)(=O)c1ccc(C)cc1
Readout Kind: normalized growth
Reported Value: 1
//
Compound: O=C(Oc1cccc2[nH]ccc12)c1ccc(C(F)(F)F)cc1
Readout Kind: normalized growth
Reported Value: 0.603
//
Compound: CCN(CC)Cc1ccc(Nc2ccnc3cc(Cl)ccc23)cc1O
Readout Kind: normalized growth
Reported Value: 1.01
//
Compound: CC[C@@H](C(=O)C(C)[C@@H](O)[C@H](C)CCc1ccc(C)c(O)c1C(=O)O)C1OC(CC)(C2CC[C@](O)(CC)[C@H](C)O2)C[C@@H]1C (some centres not stated)
Readout Kind: normalized growth
Reported Value: 1
//
Compound: Cc1cc(C(=O)NNS(=O)(=O)c2ccc(F)c(Cl)c2)nn1-c1c(Cl)cc(Cl)cc1Cl
Readout Kind: normalized growth
Reported Value: 1.03
//
Compound: CC1(C)CC(=O)C=C(Sc2nc3ccccc3o2)C1
Readout Kind: normalized growth
Reported Value: 0.955
//
Compound: C=C1CCC2[C@](C)(CO)[C@H](O)CC[C@@]2(C)[C@@H]1C/C=C1/C(=O)OC[C@H]1O (some centres not stated)
Readout Kind: normalized growth
Reported Value: 1.02
//
Compound: CCOC(=O)c1ccc2nc(N=CNO)sc2c1
Readout Kind: normalized growth
Reported Value: 0.894
//
Compound: Nc1nc(=S)c2[nH]cnc2[nH]1
Readout Kind: normalized growth
Reported Value: 1.01
//
Compound: O=C(OCC(O)CO)c1ccccc1Nc1ccnc2cc(Cl)ccc12 (configuration not stated)
Readout Kind: normalized growth
Reported Value: 0.99
//
Compound: CC(C)(C)c1ccc(C(=N)SC(C(=O)C(F)(F)F)c2ccccc2)cc1 (configuration not stated)
Readout Kind: normalized growth
Reported Value: 0.885

----------
- Assay Remarks: chemical genetic growth profiling, strain panel (AID 1159580);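 note: tested at 20 µM; growth read once vehicle control cultures reached saturation at 30 °C; 1 = growth at the plate median or of vehicle wells; lower values mean less growth of the strain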
- Condition: S. cerevisiae deletion strains, growth OD, locus YIR030C, strain dcg1, stronger effect = lower value
About 2,000 (36%) of roughly 5,500 compounds were called active. Not shown: some 18% with an inconclusive outcome. Some of the results follow.
Attribute: normalized growth

Molecule: Oc1ccc2c(c1)O[C@H](c1ccc(O)c(O)c1)[C@@H](O)C2
normalized growth: 1
//
Molecule: Oc1cc(O)c2c(c1)OC(c1cc(O)c(O)c(O)c1)C(O)C2c1c(O)cc(O)c2c1OC(c1cc(O)c(O)c(O)c1)C(O)C2c1c(O)cc(O)c2c1OC(c1cc(O)c(O)c(O)c1)C(O)C2 (centres undefined)
normalized growth: 1
//
Molecule: Oc1cc(O)c2c(c1)O[C@H](c1cc(O)c(O)c(O)c1)[C@H](O)C2
normalized growth: 1
//
Molecule: Oc1cc(O)c2c(c1)O[C@H](c1ccc(O)c(O)c1)[C@H](O)C2
normalized growth: 0.986

----------
- Assay Remarks: chemical genetic growth profiling, strain panel (AID 1159580);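 note: tested at 20 µM; growth read once vehicle control cultures reached saturation at 30 °C; 1 = growth at the plate median or of vehicle wells; lower values mean less growth of the strain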
- Condition: S. cerevisiae deletion strains, growth OD, locus YIR030C, strain dcg1, stronger effect = lower value
In all, about 5,500 compounds went through this assay and about 2,000 (36%) were called active. Not shown: some 18% with an inconclusive outcome. This is one part of the list.

Compound: CC(=O)Oc1cc(OC(C)=O)c2c(c1)O[C@H](c1ccc(OC(C)=O)c(OC(C)=O)c1)[C@H](OC(C)=O)C2
normalized growth: 1.03
//
Compound: O=C1CCC(N2C(=O)c3ccccc3C2=O)C(=O)N1 (stereo not given)
normalized growth: 0.994
//
Compound: O=C(O[C@@H]1Cc2c(O)cc(O)cc2O[C@@H]1c1ccc(O)c(O)c1)c1cc(O)c(O)c(O)c1
normalized growth: 1.04
//
Compound: C[n+]1c2cc(N)ccc2cc2ccc(N)cc21
normalized growth: 0.859
//
Compound: CCCCCCCCCCC[C@@H](C[C@H]1OC(=O)[C@H]1CCCCCC)OC(=O)[C@@H](CC(C)C)NC=O
normalized growth: 1.03
//
Compound: O=C(Oc1cc(O)cc2c1C[C@@H](OC(=O)c1cc(O)c(O)c(O)c1)[C@@H](c1cc(O)c(O)c(O)c1)O2)c1cc(O)c(O)c(O)c1
normalized growth: 0.889
//
Compound: CCN(CC)C(=O)N1CCN(C)CC1
normalized growth: 1.01
//
Compound: CCC(C)C(=O)OC1CC2(C)C(c3ccoc3)OC(=O)CC23OC2(C)OC34C(OC(=O)C(C)C)C3(O)C(OC(=O)C5(C)OC5C)C5(C)CC3(O)C(C)(C5C(=O)OC)C14O2 (stereo not given)
normalized growth: 1.02
//
Compound: COC(=O)CC1C2(C)CC34OC5(C)OC6(C7/C(=C(/O)C(C)C)C(=O)OC(c8ccoc8)C7(C)C(OC(=O)C(C)C)C(OC)C6(O5)C13C)C(OC)C4(OC)C2OC(C)=O (stereo not given)
normalized growth: 0.996
//
Compound: COC(=O)C[C@H]1C2(C)CC34OC5(C)O[C@@]6([C@H](OC(C)=O)C(OC(C)=O)[C@]7(C)C(/C(=C(/O)C(C)C)C(=O)O[C@H]7c7ccoc7)[C@@]6(O5)[C@H](OC(C)=O)[C@@]3(O)C2OC(=O)C(C)C)[C@]14C (stereo not given in full)
normalized growth: 1
//
Compound: O=C1C(Cl)=C(Cl)C(=O)C(Cl)=C1Cl
normalized growth: 0.85
//
Compound: O=C(Oc1cc(OC(=O)c2ccccc2)c2c(c1)O[C@H](c1ccc(OC(=O)c3ccccc3)c(OC(=O)c3ccccc3)c1)[C@@H](OC(=O)c1ccccc1)C2)c1ccccc1
normalized growth: 1.03
//
Compound: CC[C@@H](C(=O)C(C)[C@@H](O)[C@H](C)CCc1ccc(C)c(O)c1C(=O)O)C1OC(CC)(C2CC[C@](O)(CC)[C@H](C)O2)C[C@@H]1C (stereo not given in full)
normalized growth: 1.03
//
Compound: COc1cc(OC)c2c(c1)O[C@H](c1cc(OC)c(OC)c(OC)c1)[C@H](OC(=O)c1cc(OC)c(OC)c(OC)c1)C2
normalized growth: 1.01
//
Compound: CNCCC(Oc1ccc(C(F)(F)F)cc1)c1ccccc1 (stereo not given)
normalized growth: 1
